Test system: Haemonchus contortus
Test: Haemonchus contortus (HAEMCO) larval mortality assay
Conditions: 120 h, application rate 20 ppm, after 5 days, read-out: activity (percentage of larval mortality)
This section presents compounds with their documented mortality at 20 ppm values.
API: value field is a number in %; no unit string.

>  <Compound>
COc1cncc(-c2ccc(C(F)(F)CNC(=O)c3ccccc3C(F)(F)F)c(C(F)(F)F)c2)c1

>  <Number>
80

$$$$
>  <Compound>
O=C(NCCc1ccc(-c2cccnc2Cl)cc1Cl)c1ccccc1C(F)(F)F

>  <Number>
100

$$$$
>  <Compound>
O=C(NCCc1ccc(-c2ccc(C(F)(F)F)nc2)cc1Cl)c1ccccc1C(F)(F)F

>  <Number>
100

$$$$
>  <Compound>
O=C(NCC(F)(F)c1ccc(-c2ccc(Cl)nc2)cc1C(F)(F)F)c1ccccc1C(F)(F)F

>  <Number>
100

$$$$

What mortality at 20 ppm value was documented for this compound, Cn1cc(-c2ccc(CCNC(=O)c3ccccc3C(F)(F)F)c(Cl)c2)cn1 ?
100

What mortality at 20 ppm value was documented for this compound, CC(F)(CNC(=O)c1nccnc1C(F)(F)F)c1ccc(-c2cncc(F)c2)cc1Cl (centres unmarked) ?
100

What mortality at 20 ppm value was documented for this compound, CC(F)(CNC(=O)c1ccccc1Br)c1ccc(-c2cncc(F)c2)cc1Cl (centres unmarked) ?
100

What mortality at 20 ppm value was documented for this compound, O=C(NCC(F)c1ccc(-c2ccc(C(F)(F)F)nc2)cc1Cl)c1nccnc1C(F)(F)F (centres unmarked) ?
100

What mortality at 20 ppm value was documented for this compound, O=C(NCC(F)(F)c1ccc(-c2cncc(F)c2)cc1Cl)c1ccccc1C(F)(F)F ?
100

Reference source for all entries: patent US20170044104A1
